system: VDR homodimer (NR concentration 270 nM); assay: PBM binding z-score (relative to random genomic background probes); higher = stronger binding; sequences stand for … in GC…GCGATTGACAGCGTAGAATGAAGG
Would you mind telling me the reported PBM binding z-score of each entry?
# output: bare number, no unit

For AGAATGAGGTTATTAAGATCAGGGAATTGCGGTC , write its PBM binding z-score.
0.931

Supply measured PBM binding z-score of ATCTCTAGGTAAAGATAGTTTAGTGAATGCAAAT in your reply.
0.358

Read the entry CGAACTAGGTCAGAAAAGGACAGTGAAGGATGAT and write its reported PBM binding z-score.
-0.122

Dear colleague, please send me the reported PBM binding z-score for CCTACTGGTCCAAAAAGGTCATTGATGCCGATAA when you can.
3.81

Query PBM binding z-score for ATCTCTAGGTAAAAGTTCAGTTAATCCCGAGGAT
2.12

# return recorded PBM binding z-score for entry ATCGAAAGGTCGACGAGGTGATTATACACCGTTT
1.54

Read the entry AATACAGGGTCACCAGGCCAGAGTAGGTACGAAT and write its reported PBM binding z-score.
2.7

Give PBM binding z-score for TCTTGTAGATCAACAGGAGGATAAGAAAGATCGA
-0.362

Write down PBM binding z-score measured for item CGTCCAAGGTCAATGCTTGGTCAGTGAAAGCATT
2.49

Look up PBM binding z-score of AACTCTAGGTAACAAGTTCAGTGAAAGAGAGGAC and report it.
2.39

Answer with reported PBM binding z-score of GATACATGGTCAGCTAGAGGCCAGAGTATGGAAA
-0.418

Please look at this sequence and report its PBM binding z-score: GCTTACTGGTCAAAGGTTATAGCATGAATAGAAT
0.435
